- test target: B-RAF V600E (Homo sapiens, UniProt P15056, V600E)
- Construct: expressed in transfected cells; host or cells: T-Rex 293 cells (Invitrogen #R71007)
- Sequence (P15056 whole entry V600E): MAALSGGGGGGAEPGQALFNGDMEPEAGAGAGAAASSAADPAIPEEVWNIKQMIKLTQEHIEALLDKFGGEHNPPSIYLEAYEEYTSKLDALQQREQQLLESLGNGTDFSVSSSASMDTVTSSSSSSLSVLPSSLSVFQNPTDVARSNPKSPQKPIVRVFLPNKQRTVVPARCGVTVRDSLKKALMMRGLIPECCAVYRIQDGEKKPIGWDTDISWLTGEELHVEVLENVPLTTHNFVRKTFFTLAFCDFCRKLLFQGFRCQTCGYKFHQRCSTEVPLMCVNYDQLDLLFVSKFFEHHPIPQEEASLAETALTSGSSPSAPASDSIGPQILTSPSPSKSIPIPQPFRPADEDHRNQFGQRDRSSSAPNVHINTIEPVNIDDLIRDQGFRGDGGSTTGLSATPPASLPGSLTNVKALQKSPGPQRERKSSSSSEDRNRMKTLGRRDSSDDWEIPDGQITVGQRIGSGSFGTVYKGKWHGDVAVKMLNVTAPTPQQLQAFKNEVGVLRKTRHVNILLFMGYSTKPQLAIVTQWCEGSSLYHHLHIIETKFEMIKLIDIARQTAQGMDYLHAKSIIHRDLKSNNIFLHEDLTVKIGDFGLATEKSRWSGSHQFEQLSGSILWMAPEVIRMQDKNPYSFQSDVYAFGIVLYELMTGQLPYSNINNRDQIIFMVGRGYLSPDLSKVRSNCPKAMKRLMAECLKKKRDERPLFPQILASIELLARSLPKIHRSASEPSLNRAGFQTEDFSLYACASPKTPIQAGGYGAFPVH
- test details: Target protein degradation, assay C: T-Rex 293 cells, HA-BRAF_V600E, 384 well format
- Type: cell-based
- measurement context: T-REx-293, Assay C, T-Rex 293 HA-BRAF_V600E cells, 24 hours, Examples 83-269
recorded endpoint: Dmax

# compound, Dmax
rows = [
    ("N#Cc1c(NS(=O)(=O)N2CC[C@@H](F)C2)ccc(F)c1Oc1ccc2ncn(-c3cccc(N4CCN(CC5CCN(c6ccc7c(c6)CN(C6CCC(=O)NC6=O)C7=O)CC5)CC4)c3)c(=O)c2c1 (stereo partly drawn)", "35 to 70%"),
]

Report Dmax for O=C1CCC(N2Cc3cc(N4CCC(CN5CCN(c6ccc(-n7cnc8ccc(Oc9c(F)ccc(NS(=O)(=O)N%10CC[C@@H](F)C%10)c9Cl)cc8c7=O)cc6)CC5)CC4)ccc3C2=O)C(=O)N1 (stereo partly drawn) please.
35 to 70%

Further, for N#Cc1c(NS(=O)(=O)N2CC[C@@H](F)C2)ccc(F)c1Oc1ccc2ncn(-c3ccc(N4CCC(OC5CC6(C5)CN(c5ccc7c(c5)CN(C5CCC(=O)NC5=O)C7=O)C6)CC4)cc3)c(=O)c2c1 (stereo partly drawn) ?
35 to 70%

----------
- test target: B-RAF V600E (Homo sapiens, UniProt P15056, V600E)
- Construct: expressed in transfected cells; host or cells: T-Rex 293 cells (Invitrogen #R71007)
- test details: Target protein degradation, assay C: T-Rex 293 cells, HA-BRAF_V600E, 384 well format
- Format: cell-based
- measurement context: T-REx-293, Assay C, T-Rex 293 HA-BRAF_V600E cells, 24 hours, Examples 83-269
- Method: C. T-Rex 293 Cells (384 Well Format) T-Rex 293 cells were purchased from Invitrogen (#R71007), and stably transfected with a pcDNA4/TO_HA-BRAF_V600E construct, using 400 ug Zeocin for selection. […] BRAF intensity is quantified in HCS Studio software (ThermoFisher), using a custom script, exported, analyzed using KNIME, and curve curation is performed in an ELN (Scilligence). Cell toxicity is measured via comparing number of nuclei in PROTAC treated wells to DMSO controls. […]
recorded endpoint: Dmax

# compound, test target, reported result
records = [
    ("CCc1c(NS(=O)(=O)N2CC[C@@H](F)C2)ccc(F)c1Oc1ccc2ncn(-c3ccc(N4CCN(CC5CCN(c6ccc7c(c6)CN(C6CCC(=O)NC6=O)C7=O)CC5)CC4)cc3)c(=O)c2c1 (stereo partly drawn)", "B-RAF V600E (Homo sapiens, UniProt P15056, V600E)", "≤ 35%"),
    ("N#Cc1c(NS(=O)(=O)N2CC[C@@H](F)C2)ccc(F)c1Oc1ccc2ncn(-c3ccc(N4CCC(CN5CC6(C5)CN(c5cccc7c5C(=O)N(C5CCC(=O)NC5=O)C7=O)C6)CC4)nc3)c(=O)c2c1 (stereo partly drawn)", "B-RAF V600E (Homo sapiens, UniProt P15056, V600E)", "35 to 70%"),
]

Here's the next entry for you.
# get_value(readout= Dmax, system= B-RAF V600E (Homo sapiens, UniProt P15056, V600E)) for N#Cc1c(NS(=O)(=O)N2CC[C@@H](F)C2)ccc(F)c1Oc1ccc2ncn(-c3ccc(N4CCC(CN5CCC(Oc6ccc7c(c6)C(=O)N(C6CCC(=O)NC6=O)C7=O)CC5)CC4)nc3)c(=O)c2c1 (stereo partly drawn)
≤ 35%
